In this section we review reported pKd values for a set of binders.
Target: T1, recombinant LILRB1 ECD (human, UniProt Q8NHL6 24-461)
T1 construct: also called biotinylated LILRB1 ECD
T1 sequence (Q8NHL6 24-461 limits assumed): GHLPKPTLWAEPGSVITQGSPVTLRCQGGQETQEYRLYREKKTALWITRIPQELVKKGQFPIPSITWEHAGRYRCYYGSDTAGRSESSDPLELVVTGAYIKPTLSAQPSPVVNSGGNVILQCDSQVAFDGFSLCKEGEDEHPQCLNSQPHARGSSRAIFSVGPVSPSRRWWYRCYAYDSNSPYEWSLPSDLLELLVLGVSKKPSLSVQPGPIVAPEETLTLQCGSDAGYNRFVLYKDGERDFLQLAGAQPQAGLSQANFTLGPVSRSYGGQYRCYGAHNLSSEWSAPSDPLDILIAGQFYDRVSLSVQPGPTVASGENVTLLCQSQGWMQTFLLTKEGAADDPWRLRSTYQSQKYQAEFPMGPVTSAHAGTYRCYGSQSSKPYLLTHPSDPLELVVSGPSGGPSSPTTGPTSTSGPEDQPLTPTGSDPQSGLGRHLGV
Experiment: BLI, IgG on AHC sensor, ECD in solution
Scale: negative log10 of molar concentration, which is what pKd denotes.

A selection of reference data follows.
| BINDER | pKd |
| --- | --- |
| A-003 (antibody, V domains shown, tested as IgG; also called parental antibody A-003) VH: QVQLVQSGAEVKKPGSSVKVSCKASGGTFSSYAISWVRQAPGQGLEWMGGIIPIFGTANYAQKFQGRVTITADESTSTAYMELSSLRSEDTAVYYCAKGPPVGSSSWYTDWYFDLWGRGTLVTVSS VL: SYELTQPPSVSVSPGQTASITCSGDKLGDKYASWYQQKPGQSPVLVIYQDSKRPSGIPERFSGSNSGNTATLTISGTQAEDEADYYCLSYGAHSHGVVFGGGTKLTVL | 7.00 |
| A-006 (antibody, V domains shown, tested as IgG) VH: QVQLVQSGAEVKKPGSSVKVSCKASGGTFSQYAFSWVRQAPGQGLEWMGSIIPGFTTSNYAHKFQGRVTITADESTSTAYMELSSLRSEDTAVYYCAKDLGTYSSGWPYYYGMDVWGQGTTVTVSS VL: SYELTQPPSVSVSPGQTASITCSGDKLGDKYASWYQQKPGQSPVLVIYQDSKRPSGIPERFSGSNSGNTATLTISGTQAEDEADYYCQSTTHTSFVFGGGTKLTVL | 9.30 |
| A-046 (antibody, V domains shown, tested as IgG) VH: QVQLVQSGAEVKKPGSSVKVSCKASGGSFQSYAINWVRQAPGQGLEWMGGIIPGFSTANYAQKFQGRVTITADESTSTAYMELSSLRSEDTAVYYCAKDLGTYSSGWPYYYGMDVWGQGTTVTVSS VL: SYELTQPPSVSVSPGQTASITCSGDKLGDKYASWYQQKPGQSPVLVIYQDSKRPSGIPERFSGSNSGNTATLTISGTQAEDEADYYCQLTHLTIYVFGGGTKLTVL | 7.90 |

Shifting focus to the binder that follows.
Prompt: Bench note: what pKd did A-030 (antibody, V domains shown, tested as IgG) VH: QVQLVQSGAEVKKPGSSVKVSCKASGGSFQSYAFSWVRQAPGQGLEWMGGIVPIYYTATYAQKFQGRVTITADESTSTAYMELSSLRSEDTAVYYCAKGPPVGSSSWYTDWYFDLWGRGTLVTVSS VL: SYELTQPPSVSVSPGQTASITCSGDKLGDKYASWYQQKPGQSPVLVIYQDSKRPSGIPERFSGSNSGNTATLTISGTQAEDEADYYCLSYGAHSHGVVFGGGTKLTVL show?
Response: 8.49
